biological target: Cyclin-dependent kinase 5 (Homo sapiens); details: at 0.1 µM;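 further: enzyme tested as the CDK5/p35 complex, values are mean percent inhibition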
Examples of molecules with documented inhibition follow.
Parameter measured: inhibition (%)

- Molecule: "CCn1c(-c2nonc2N)nc2cncc(C(=O)NCCNC)c21"
  Assayed target: "Cyclin-dependent kinase 5 (Homo sapiens)"
  Unit text: "%"
  Result value: -0.65
- Molecule: "c1ccc(-c2n[nH]cc2-c2ccnc(-c3ccc(OCCn4ccnc4)cc3)c2)nc1"
  Assayed target: "Cyclin-dependent kinase 5 (Homo sapiens)"
  Unit text: "%"
  Result value: 1.11
- Molecule: "COc1cc(Nc2ncc(-c3ccccc3)o2)cc(OC)c1"
  Assayed target: "Cyclin-dependent kinase 5 (Homo sapiens)"
  Unit text: "%"
  Result value: -0.03
- Molecule: "Cc1c2ccc(N(C)c3ccnc(Nc4cccc(S(N)(=O)=O)c4)n3)cc2nn1C"
  Assayed target: "Cyclin-dependent kinase 5 (Homo sapiens)"
  Unit text: "%"
  Result value: -1.58
- Molecule: "COc1ccccc1-c1cc(/C=C2\\C(=O)Nc3ncc(Br)cc32)cc(Br)c1O"
  Assayed target: "Cyclin-dependent kinase 5 (Homo sapiens)"
  Unit text: "%"
  Result value: 4.84
- Molecule: "CN(c1ccc(NC(=O)NCCN2CCOCC2)cc1)c1ccnc(Nc2ccc(CS(C)(=O)=O)cc2)n1"
  Assayed target: "Cyclin-dependent kinase 5 (Homo sapiens)"
  Unit text: "%"
  Result value: 0.44
- Molecule: "N#Cc1ccc2c(-c3ccnc(NC4CC4)n3)c(-c3ccc(F)cc3)nn2c1"
  Assayed target: "Cyclin-dependent kinase 5 (Homo sapiens)"
  Unit text: "%"
  Result value: -0.1
- Molecule: "CS(=O)(=O)Nc1ccc(-c2cc(-c3ccccc3)cc(C(N)=O)c2N)cc1"
  Assayed target: "Cyclin-dependent kinase 5 (Homo sapiens)"
  Unit text: "%"
  Result value: 0.11
- Molecule: "CC1=C(C(=O)Nc2ccc3[nH]nc(C)c3c2)C(c2ccc(C(F)(F)F)cc2)CC(=O)N1 (stereo not given)"
  Assayed target: "Cyclin-dependent kinase 5 (Homo sapiens)"
  Unit text: "%"
  Result value: 2.58
- Molecule: "CCOc1ccc2c(-c3ccnc(Nc4cc(OC)cc(C(F)(F)F)c4)n3)cnn2n1"
  Assayed target: "Cyclin-dependent kinase 5 (Homo sapiens)"
  Unit text: "%"
  Result value: 2.44
- Molecule: "CS(=O)(=O)CCNCc1ccc(-c2ccc3ncnc(Nc4ccc(OCc5ccccc5)cc4)c3c2)o1"
  Assayed target: "Cyclin-dependent kinase 5 (Homo sapiens)"
  Unit text: "%"
  Result value: 0.58
- Molecule: "COc1cccc(-n2ncc3c(N/N=C/c4ccc(C(=O)NCCN(C)C)cc4)ncnc32)c1"
  Assayed target: "Cyclin-dependent kinase 5 (Homo sapiens)"
  Unit text: "%"
  Result value: 37.9
- Molecule: "NS(=O)(=O)c1cccc(N/C=C2\\C(=O)Nc3ccccc32)c1"
  Assayed target: "Cyclin-dependent kinase 5 (Homo sapiens)"
  Unit text: "%"
  Result value: 2.87
- Molecule: "O=C1Nc2ccccc2/C1=C1\\CCc2cc(O)ccc21"
  Assayed target: "Cyclin-dependent kinase 5 (Homo sapiens)"
  Unit text: "%"
  Result value: 1.5
- Molecule: "CNC(=O)c1ncccc1Nc1nc(Nc2cc3c(cc2OC)CCCN3C(=O)CN(C)C)nc2[nH]ccc12"
  Assayed target: "Cyclin-dependent kinase 5 (Homo sapiens)"
  Unit text: "%"
  Result value: 3.84
- Molecule: "O=C(Nc1n[nH]c2nnc(-c3cccnc3)cc12)C1CC1"
  Assayed target: "Cyclin-dependent kinase 5 (Homo sapiens)"
  Unit text: "%"
  Result value: 27.2
- Molecule: "CC1(C)CC(n2cnc(-c3ccc(F)cc3)c2-c2ccnc(N)n2)CC(C)(C)N1"
  Assayed target: "Cyclin-dependent kinase 5 (Homo sapiens)"
  Unit text: "%"
  Result value: 0.25
- Molecule: "CN(C)CCNC(=O)Nc1ccc(N(C)c2ccnc(Nc3ccc(CS(C)(=O)=O)cc3)n2)cc1"
  Assayed target: "Cyclin-dependent kinase 5 (Homo sapiens)"
  Unit text: "%"
  Result value: 0.85
- Molecule: "COC(=O)Nc1nc2cc(Oc3ccc(NC(=O)Nc4ccccc4)cc3)ccc2[nH]1"
  Assayed target: "Cyclin-dependent kinase 5 (Homo sapiens)"
  Unit text: "%"
  Result value: 0.28
- Molecule: "CCS(=O)(=O)c1ccc(OC)c(Nc2ncc(-c3cccc(C(C)=O)c3)o2)c1"
  Assayed target: "Cyclin-dependent kinase 5 (Homo sapiens)"
  Unit text: "%"
  Result value: 1.03
- Molecule: "CS(=O)(=O)CCNCc1ccoc1-c1ccc2ncnc(Nc3ccc(OCc4ccccc4)cc3)c2c1"
  Assayed target: "Cyclin-dependent kinase 5 (Homo sapiens)"
  Unit text: "%"
  Result value: 0.75
- Molecule: "Cc1cc(O)cc(C)c1/C=C/c1cncc(C(N)=O)c1"
  Assayed target: "Cyclin-dependent kinase 5 (Homo sapiens)"
  Unit text: "%"
  Result value: 0.63
- Molecule: "CCS(=O)(=O)c1ccc(OC)c(Nc2ncc(-c3cccc(F)c3)o2)c1"
  Assayed target: "Cyclin-dependent kinase 5 (Homo sapiens)"
  Unit text: "%"
  Result value: 0.21
- Molecule: "CNC(=O)c1sc(-n2cnc3cc(OC)c(OC)cc32)cc1OCc1ccccc1C(F)(F)F"
  Assayed target: "Cyclin-dependent kinase 5 (Homo sapiens)"
  Unit text: "%"
  Result value: 0.36
- Molecule: "Cn1c(-c2nonc2N)nc2cnccc21"
  Assayed target: "Cyclin-dependent kinase 5 (Homo sapiens)"
  Unit text: "%"
  Result value: 1.09
